The measurements presented in this section are drawn from patent US8592600B2.

- measurement.description: Bioavailability study of ilaprazole from 40-mg delayed-release tablets, plasma pharmacokinetics
- Assay type: in vivo, human
- details: human, plasma, po, 40 mg, plasma ilaprazole, healthy adult subjects, single 40 mg oral dose (table title; text: 40 mg delayed-release tablet), fasted
- Excerpt: The bioavailability of ilaprazole from delayed-release tablets containing racemic ilaprazole, Form A, F, and B. This study were to assessed the bioavailability of ilaprazole from ilaprazole 40-mg delayed-release tablets manufactured as described in Example 8. The subjects were randomly assigned in equal numbers to one of three sequence groups (Table 32). Subjects received all regimens in a crossover fashion, according to the sequence group to which they were randomized. […]
quantity.kind: AUC(0-inf) (ng·h/mL)
Give the value, in units of ng·h/mL, as a plain number.

// AUC(0-inf) lookup, key: COc1ccnc(C[S+]([O-])c2nc3cc(-n4cccc4)ccc3[nH]2)c1C (racemic) [Form A]
5450

###

- measurement.description: Dynamic Vapor Sorption/Desorption (DVS)
- Format: physicochemical
- details: DVS isotherm, sorption
quantity.kind: weight gain from 5 to 95% RH (%)
Answer with a number only, understood to be in %.

Query: weight gain from 5 to 95% RH; subject: COc1ccnc(C[S+]([O-])c2nc3cc(-n4cccc4)ccc3[nH]2)c1C (racemic) [Form F]
1.05

Field entry: COc1ccnc(C[S+]([O-])c2nc3cc(-n4cccc4)ccc3[nH]2)c1C (racemic) [Form I]
4.2

Please answer likewise for COc1ccnc(C[S+]([O-])c2nc3cc(-n4cccc4)ccc3[nH]2)c1C (racemic) [Form B]
0.04

And the next one, COc1ccnc(C[S+]([O-])c2nc3cc(-n4cccc4)ccc3[nH]2)c1C (racemic) [Form A] ?
0.10

###

- measurement.description: Dynamic Vapor Sorption/Desorption (DVS)
- Format: physicochemical
- details: DVS isotherm, desorption
I'd be grateful if you could share measured weight loss from 95 to 5% RH for these entries.
Could you give me the number in %? Just the number is fine.

I'd like to know its weight loss from 95 to 5% RH. The compound in question is COc1ccnc(C[S+]([O-])c2nc3cc(-n4cccc4)ccc3[nH]2)c1C (racemic) [Form F]
1.33

And what about the compound COc1ccnc(C[S+]([O-])c2nc3cc(-n4cccc4)ccc3[nH]2)c1C (racemic) [Form B] ?
0.00

Here is the next compound: COc1ccnc(C[S+]([O-])c2nc3cc(-n4cccc4)ccc3[nH]2)c1C (racemic) [Form A]
0.13

Please answer likewise for COc1ccnc(C[S+]([O-])c2nc3cc(-n4cccc4)ccc3[nH]2)c1C (racemic) [Form I]
4.2

###

- measurement.description: Bioavailability study of ilaprazole from 40-mg delayed-release tablets, plasma pharmacokinetics
- Type: in vivo, human
- details: human, plasma, po, 40 mg, plasma ilaprazole, healthy adult subjects, single 40 mg oral dose (table title; text: 40 mg delayed-release tablet), fasted
quantity.kind: AUC(0-t) (ng·h/mL)
Report the value in ng·h/mL with no unit label.

Entry under review: COc1ccnc(C[S+]([O-])c2nc3cc(-n4cccc4)ccc3[nH]2)c1C (racemic) [Form A] . Reported AUC(0-t)?
5070

###

- measurement.description: Dynamic Vapor Sorption/Desorption (DVS)
- Format: physicochemical
- details: DVS isotherm
quantity.kind: weight loss at 5% RH (%)
Quick reminder: number only, in %, skip the unit.

Which weight loss at 5% RH is listed for COc1ccnc(C[S+]([O-])c2nc3cc(-n4cccc4)ccc3[nH]2)c1C (racemic) [Form I] ?
0.1

Please give the result for COc1ccnc(C[S+]([O-])c2nc3cc(-n4cccc4)ccc3[nH]2)c1C (racemic) [Form B] too.
0.03

Same question, COc1ccnc(C[S+]([O-])c2nc3cc(-n4cccc4)ccc3[nH]2)c1C (racemic) [Form A] this time
0.06

And then COc1ccnc(C[S+]([O-])c2nc3cc(-n4cccc4)ccc3[nH]2)c1C (racemic) [Form F] , what is it?
0.04
